- tested system: rat P2X3 receptor (Rattus norvegicus, UniProt P49654)
- Construct: expressed in transfected cells; host or cells: CHO-K1
- Sequence (P49654 whole entry): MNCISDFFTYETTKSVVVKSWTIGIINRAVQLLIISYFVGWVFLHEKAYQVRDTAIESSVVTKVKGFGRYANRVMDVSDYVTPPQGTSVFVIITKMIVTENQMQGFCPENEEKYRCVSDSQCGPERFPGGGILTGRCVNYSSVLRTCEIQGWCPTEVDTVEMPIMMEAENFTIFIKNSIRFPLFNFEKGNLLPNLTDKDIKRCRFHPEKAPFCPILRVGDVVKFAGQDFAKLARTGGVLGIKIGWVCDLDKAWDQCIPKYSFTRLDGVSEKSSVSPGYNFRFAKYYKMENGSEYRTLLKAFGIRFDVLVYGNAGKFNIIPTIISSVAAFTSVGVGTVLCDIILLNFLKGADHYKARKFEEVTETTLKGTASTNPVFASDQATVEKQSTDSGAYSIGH
- assay method text: P2X3/P2X2/3 FLIPR (Fluorometric Imaging Plate Reader) Assay, P2X3
- Format: cell-based
- run conditions: CHO-K1 cells transfected with rat P2X3; agonist α,β-meATP 1 μM; Table 1; read-out: P2X3 pKi (converted)
readout kind: Ki (nM)

Guide cases for Ki, answers given:
Cc1cnc(CNC(=O)c2cc(-c3ccc(Cl)cn3)cc(-n3ncnc3CF)c2)cn1
21.4
Cc1ccc(-c2cc(C(=O)NCc3cnc(C)cn3)cc(-n3ncnc3C(C)(C)C)c2)nc1
6.03
Cc1ccc(-c2cc(C(=O)N[C@@H](C)c3cnccn3)cc(-n3ncnc3C(F)(F)F)c2)nc1
6.61

(A) CCc1ncnn1-c1cc(C(=O)N[C@@H](C)CO)cc(-c2ccc(Cl)cn2)c1
(B) Cc1ccc(-c2cc(C(=O)NCc3cnc(C)cn3)cc(-n3ncnc3CC(C)C)c2)nc1
In: I would appreciate it if you could say which entry, A or B , has the lower Ki value. Pick one and reply with its label.
Out: B
(B: 3.55 nM, A: 148 nM)

(A) C[C@@H](CO)NC(=O)c1cc(-c2ccc(Cl)cn2)cc(-n2ncnc2C(C)(C)C)c1
(B) Cc1ccc(-c2cc(C(=O)NCc3cnc(C)cn3)cc(-c3ncnn3C(C)C)c2)cc1
In: I would appreciate it if you could say which entry, A or B , has the lower Ki value. Pick one and reply with its label.
Out: B
